SYSTEM UNDER TEST: T1, recombinant hSIRPg-His (Sino Biologicals, reference 11828-H08H) (human, UniProt Q9P1W8 29-360)
T1 construct: also called human SIRPg-His; not shown: His tag
T1 sequence (Q9P1W8 29-360 limits assumed): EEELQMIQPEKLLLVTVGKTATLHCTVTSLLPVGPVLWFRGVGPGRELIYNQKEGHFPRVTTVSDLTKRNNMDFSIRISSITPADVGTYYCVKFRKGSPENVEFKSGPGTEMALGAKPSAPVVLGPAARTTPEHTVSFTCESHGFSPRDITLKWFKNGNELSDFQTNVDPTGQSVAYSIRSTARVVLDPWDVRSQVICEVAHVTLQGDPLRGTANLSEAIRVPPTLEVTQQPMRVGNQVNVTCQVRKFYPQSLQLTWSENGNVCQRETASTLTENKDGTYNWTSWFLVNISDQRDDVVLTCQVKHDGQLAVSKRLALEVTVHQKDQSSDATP
EXPERIMENTAL PROTOCOL: BLI (Blitz); SIRPg-His on Ni-NTA biosensor, antibody at 10 ug/ml or 20 ug/ml (Example 9) [B, table A]
Reported kon values for the following binders.
Value expressed in M⁻¹ s⁻¹; do not type the unit.

Worked set:
| BINDER | kon / M⁻¹ s⁻¹ |
| --- | --- |
| HFLA (antibody, human IgG4 S228P, kappa, V domains shown, humanized 18D5 variant) VH: EVQLVQSGAEVKKPGESLRISCKASGYSFTSYWVHWVRQMPGKGLEWMGNIDPSDSDTHYSPSFQGHVTLSVDKSISTAYLQLSSLKASDTAMYYCVRGGTGTMAYFAYWGQGTLVTVSS VL: DVVMTQSPLSLPVTLGQPASISCRSSQSLVHSYGNTYLYWYQQRPGQSPRLLIYRVSNRFSGVPDRFSGSGSGTDFTLKISRVEAEDVGVYFCFQGTHVPYTFGGGTKVEIKR | 248000 |
| HFLB (antibody, human IgG4 S228P, kappa, V domains shown, humanized 18D5 variant) VH: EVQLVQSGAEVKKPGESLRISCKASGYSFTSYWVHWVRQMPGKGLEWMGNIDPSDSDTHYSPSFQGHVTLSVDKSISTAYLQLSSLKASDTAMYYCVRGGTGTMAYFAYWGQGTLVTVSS VL: DVVMTQSPLSLPVTLGQPASISCRSSQSLVHSYGNTYLYWFQQRPGQSPRLLIYRVSNRFSGVPDRFSGSGSGTDFTLKISRVEAEDVGVYYCFQGTHVPYTFGGGTKVEIKR | 119000 |
| HEFLA (antibody, human IgG4 S228P, kappa, V domains shown, humanized 18D5 variant) VH: EVQLVQSGAEVKKPGESLRISCKASGYSFTSYWVHWVRQMPGKGLEWMGNIDPSDSDTHYSPSFQGHVTLSVDKSISTAYLQLSSLKASDTAMYYCVRGGTGTLAYFAYWGQGTLVTVSS VL: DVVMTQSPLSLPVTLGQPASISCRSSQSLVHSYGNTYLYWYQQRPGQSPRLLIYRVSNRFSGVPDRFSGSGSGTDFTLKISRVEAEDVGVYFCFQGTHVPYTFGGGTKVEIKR | 217000 |

# input for lookup
Noted for HALA (antibody, human IgG4 S228P, kappa, V domains shown, humanized 18D5 variant; also called humanized 18D5 variant HALA) VH: EVQLVQSGAEVKKPGESLRISCKASGYTFTSYWVHWVRQMPGKGLEWIGNIDPSDSDTHYNQKFKDHVTLSVDKSISTAYLQLSSLKASDTAMYYCVRGGTGTMAWFAYWGQGTLVTVSS VL: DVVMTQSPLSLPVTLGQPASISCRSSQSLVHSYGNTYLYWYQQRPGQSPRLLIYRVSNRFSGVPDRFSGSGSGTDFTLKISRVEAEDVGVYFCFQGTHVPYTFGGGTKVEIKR : its kon reads 154000

All figures here come from patent US20210179728A1.
